experiment: soluble fraction after stress (log2 fold change); higher = more stays soluble; pooled small domains, quantitative proteomics; conditions: stress: pH 4
Returns one of criterion met or criterion not met; criterion met when soluble fraction (log2) is >= 0.08.

Input line: Check this sequence for soluble fraction (log2) at or above 0.08: HMNTISYTELIKQIDEGNVEKVEMTVGSTSVKVKLQGQEEEKKAIVPNTQAFVELIQEKTLEGNQIDLKQN
Output line: criterion not met

Input line: Follow-up item: HMAATGPLTPREAEIARLAAGHLSNRQIAEQLVVSERTVENHLYRIFIKLAVTGRDDLAAALAATEQ
Output line: criterion not met

Input line: // next record HMNLNESVELGQELLSQALAQLGIRGELSPSTIDKLLAESSAKSMEELYADIGIGKRMPALVARHIFGLMD
Output line: criterion not met

Input line: Here is the next sequence: HMQGEAMQETVKKLDAFLQDNSVSMSALARALGVSPSLISQFRSGSYKGDSQAIAAKINSYIDNHNKKSK
Output line: criterion not met

Input line: Please answer likewise for HMRDKSITFSEFVKLLDEGQIQKVTLTGNEILGTQKSGDKFRTYAPPQYEGLGNKLVERSVEVTAKE
Output line: criterion met

Input line: How about HMAKNSVLTIELWNSTAFKWRKDTEPYSESMSVDFNRSVRLTDGISIMFSKFGFVPGIQYLIPLQT ?
Output line: criterion not met

Input line: Next entry: HMKPGWEDIFRMNQIQLEDAVRTVNRDDTLAPTKKAYLIQNLLASRWIVGNQLQAQKDKTTE
Output line: criterion not met

Input line: One more sequence: HMQMTTPQMVPLFTDLSVDDSASIIKDLERQAVPYQIKSDGAIIMVPKDKVTRLRMKLAESGLPK
Output line: criterion met

Input line: Same again, this time with HMSEDTYNTLTKGTRVYNGVDYGAKYGYNPLYYFLNYNDLRIAYGADPAKLVEHYALFGIKENRVANRQIT
Output line: criterion not met

Input line: Request: HMGSRRFGDSNHAAKLTEEQVVEIRELAAAGATTKFLAEMVGMHPNYVGLILRGLSWPEAGGPLRVA
Output line: criterion met

Input line: Similarly, HMSPLQLGNYNTLRITRFTDHGAYLDGGDVGEILMPKTYVLPEMKPGDEVRVFVYLDQEERLVGTTET ?
Output line: criterion not met

Input line: Follow-up item: HMTATVPDSEAGIRLDVYAAALLGVSRAGAQKYIESGAVRVNGLPAPKNRRLESGDVIEAVLPDPE
Output line: criterion met

Input line: // next record HMLSLSDIINDVMERLTREKNLTFDELLGEKRERRRIVYTFLALLELIRLKMIKAYQTAAFGVIRIFPR
Output line: criterion not met

Input line: Another sequence to look at: HMDSSALEPIVDQIIADNPKQVEQFQAGKTKVLGFFVGQVMKQTDGTANPKQVNELVAARLKSA
Output line: criterion met

Input line: Note, next up: HMRKTIQDFLSSNKVDIAKLLTLALEKTKEDLYKNLSYNLTNKELEKLKLLIKKREQGIPFAYLS
Output line: criterion met

Input line: Another sequence to check: HMDLYIILGLERSATLSDVRRAYRRLARKYHPGINPGDRNSASVFTRVSEAYQVLSDPEQRRRYDSR
Output line: criterion not met

Input line: Same question, HMEFEYFQLRDHLYNLIMHPDKEKLKKDPDYLKLMSMAFSLLEDQNVGKDILEIAIKSIENFK this time
Output line: criterion not met

---

test: soluble fraction after stress (log2 fold change); higher = more stays soluble; pooled small domains, quantitative proteomics; conditions: stress: pH 4
Please enter Yes where soluble fraction (log2) is greater than or equal to -0.3, and No where it is lower.

Input line: Is it the case that HMKHKHHIIPKHKGGTDHPDNLIELTVEQHAKAHWVEFMLDGREEDYWAWKGLEGVASKKDIIYALSKR has soluble fraction (log2) reaching or exceeding -0.3?
Output line: No

Input line: Can you check HMIKEGDLVFIWNPKKGDSFLIKVQPGQSQGTHFGQIKHSEIMEHNYGEGIRTPKGQVYYLLRPTLGEFTR next?
Output line: No

Input line: Item: HMSNEWIEISAKTVDDAINEGLIRLGTTTDKMDVEVLEKESAGFLGFIGKHDAKIRVRFKEV
Output line: No

Input line: Again, but for HMGGEEKALLFGDVDIREAGEITQRLEQAEIPYELRGDGSSIFVPRSRVMEARMMISADGLL
Output line: No

Input line: Here is the next sequence: HMDLVESYDLKIIYTSELINLLIDSSRLEEALNLFKDLKDEIDDVENLGFSAKNNLDYMESKLLHLG
Output line: No

Input line: What about HMGAIVTVPDLAGRPQPGAEAELRRSGLVPKVRTSYSLTGTRGTVISQTPPAGSRVREGAEVEVVVSRGLN ?
Output line: Yes

Input line: Also check HMTEEYAVLWRVARQTLKPEAFDVLWMKYREQLSIAEIAGIMNRSETSVKVMLHRARKNLGTALESS
Output line: Yes

Input line: Next entry: HMGGAVQIAEQIAARIKDGALRPGELLPPVRQLAAELEVNPNTVASAYARLRDAGLVATRGRAGTVVLEPP
Output line: Yes

---

test: soluble fraction after stress (log2 fold change); higher = more stays soluble; pooled small domains, quantitative proteomics; details: stress: pH 4
Label rule, in plain words: soluble fraction (log2) of -1 and up is rule met, under -1 is rule not met.

Input line: Given HMGDTVSGTMLNLKPGVRVVHQIFGPGRVEETTGASLAEFRVTVRFEQKGLKTLLLQYAALQVINSEN , state whether its soluble fraction (log2) is at least -1.
Output line: rule not met

Input line: Please give the result for HMSKLSLREIVKKFEEQIIQLHKRGLNHSEISREIVTKNSIDLGDSHIDSLRRAISVHLQTP too.
Output line: rule met

Input line: Another sequence to look at: HMTVSLLQTRQRLQALADLGHYKGDLGAAWGPDAIEALKKAQATLGVTVDGKWGPQTEDAIQVALKVQ
Output line: rule met

Input line: Could you do the same for HMTDRKRDAIVQAAIGEFREHGFNGTSMDRVAAAADVSKRTVYNHFPSKEELFEAILLLMWE , please?
Output line: rule not met

Input line: Quick one: HMEPQLVKSFDVQTELTYDQFLSKYPESHTLGRLLVQPEPIPFEPYKNIPGITPEKLLALHAKHLEAR
Output line: rule met

Input line: Thanks! And HMGDTPVDFSEFIRWVDTGVVDRVELTGNEIVGTSSSGERFSTYAPPQYEGLGNKLIERDIVVVATAA ?
Output line: rule not met

Input line: Another: HMRNEFEAHSDGTRIQLNDRSKATFSVYDVQGRLIHSFQDFSGSSFNIEPKNQLLIITRETAEGVSVKKLV
Output line: rule met

Input line: Okay, and HMNINTEMEKVSYSLGVNIASSLKQQGWELDAKSLSDAFVDVFNGNKLLIDEKEASSILQNYQQKIANK ?
Output line: rule not met

---

assay: soluble fraction after stress (log2 fold change); higher = more stays soluble; pooled small domains, quantitative proteomics; details: stress: pH 4
property name: soluble fraction (log2)

Input line: Reported soluble fraction (log2) for HMTAVAAEQQAQDAYRQTAANNLNEIQAKYKLPDSESDDFFTFAYERGFTQEDFIDIGLVDKIMGDYV : what is it?
Output line: -0.203

Input line: Check HMGGVEWLTHPIGPRDSLQVLARAGLEARPTSDGDYEIYGQERWPQRDQARLMGWLRRFGQWVWQALYDK too.
Output line: -0.386

Input line: Here is the next sequence: HMSEPHPPFQVVAQFPYKSEYEDDLNFEKDQIITVTSIEDDEWYYGDFKNKGGELVEGIFPKSFVTVK
Output line: -0.867

Input line: Also HMPQPEIEIAAVVPYSAGALLSRIHDDGELLAPVEYRGEGVFVHARVPADIEAAMRRGGMLSPAET , if possible.
Output line: -0.164

---

experiment: soluble fraction after stress (log2 fold change); higher = more stays soluble; pooled small domains, quantitative proteomics; settings: stress: pH 4
Kindly state soluble fraction (log2) for each of the entries shown.
Provide a numeric answer; units are not to be included.

Input line: Given the entry HMQEHAHLWRLMEDNRSFKADYIAFENGIVLLQNLSSGKISQYPITDFSIEDQLLILKRHELTAHINAN , report its measured soluble fraction (log2).
Output line: -0.0419

Input line: Proceed to HMASLIGEEKALQIALEHAGVALENVAYSQVKLENDDGRWEYDTEFYSGSKEYDYEIDASTGEILGYDHD
Output line: -0.0579

Input line: // repeat for HMSNHYETLGVPRDASQEDIKRAYRRLARKLHPDVAGPGKAEEFKAVNEAYAVLSDEESRRMYDLGGDDAL and report
Output line: 0.145

Input line: Please answer likewise for HMDNLSESQIKAYSSILSRTHEISDLAENKDYLAFSLWIANILRDPQSVREETAKRVFSALHTNTDFK
Output line: -0.793
